Test system: M14
Assay: NCI tumour cell line growth inhibition, 48 h
Active and inactive are the calls of the source. No stated cut-off is given here; in the data, active = GI50 up to about 1.1 µM and inactive = higher.

- compound: "NC1=NS(=O)(=O)Nc2nc(-c3ccc(Cl)cc3)c(-c3ccc(Cl)cc3)nc21"
  GI50: "> 100 µM (inactive)"
- compound: "COc1ccc2c(c1)CCCc1c-2nc2ccccc2c1N"
  GI50: "9.1 µM (inactive)"
- compound: "CN1C(=O)NC2(O)c3ccccc3C(=O)C12O (stereo not drawn)"
  GI50: "> 100 µM (inactive)"
- compound: "COc1ccc(NC(=O)CC(=O)n2nc(C)c(/N=N/c3ccccc3C(=O)O)c2C)cc1"
  GI50: "> 100 µM (inactive)"
- compound: "C1COCCN1.S=C(S)N1CCOCC1"
  GI50: "12.8 µM (inactive)"
- compound: "Cc1ccccc1NC(=O)C(=O)C1CN(c2ccccc2)N=C1N (stereo not drawn)"
  GI50: "> 100 µM (inactive)"
- compound: "CCN(CC)CCCCC1CCN(CC(=O)N2c3ccccc3NC(=O)c3ccccc32)CC1"
  GI50: "19.4 µM (inactive)"
- compound: "O=C1NCc2ccccc2S(=O)(=O)n2cccc21"
  GI50: "> 100 µM (inactive)"
- compound: "CCN(CC)CCCNC(=O)c1cc2cc(NC(=O)c3cc4cc([N+](=O)[O-])ccc4[nH]3)ccc2[nH]1"
  GI50: "> 100 µM (inactive)"
- compound: "O=C(Nc1ccc(Cl)c(C(F)(F)F)c1)C(=O)c1c(O)c2ccccc2oc1=O"
  GI50: "> 100 µM (inactive)"
- compound: "O=C(NCCNCCNC(=O)c1cc(-c2ccccc2)nc2ccccc12)c1cc(-c2ccccc2)nc2ccccc12"
  GI50: "1.6 µM (inactive)"
- compound: "CCOC(=O)CC(c1ccccc1)C(C)(C(=O)OCC)C(=O)OCC (stereo not drawn)"
  GI50: "> 100 µM (inactive)"
- compound: "COC(=O)/C(C#N)=C1\\CCC(O)N1C (stereo not drawn)"
  GI50: "> 100 µM (inactive)"
- compound: "O=C1/C(=C\\c2ccc(F)cc2)CCOc2c1ccc1ccccc21"
  GI50: "26.2 µM (inactive)"
- compound: "O=C1CCC(=O)c2ccccc2N1"
  GI50: "> 100 µM (inactive)"
- compound: "C[C@H](Nc1nc(N)c(N=O)c(=O)n1C)C(=O)O"
  GI50: "> 10 µM (inactive)"
- compound: "Cc1ccccc1C1OC1C(=O)c1ccccc1N (stereo not drawn)"
  GI50: "47.3 µM (inactive)"
- compound: "COc1cc2oc(=O)cc(C)c2c(OC)c1OC(C)=O"
  GI50: "> 100 µM (inactive)"
- compound: "Cn1c(=O)c2c(ncn2CCCCn2ccnc2[N+](=O)[O-])n(C)c1=O"
  GI50: "> 100 µM (inactive)"
- compound: "Nc1nc(=S)[nH]c2nc3c(c(-c4ccccc4)c12)CCCC3"
  GI50: "> 100 µM (inactive)"
- compound: "Brc1sc(Br)c2c1[C@H](Br)C[C@@H]2Br"
  GI50: "29.2 µM (inactive)"
- compound: "CCOC(=O)C1(C(=O)OCC)[C@H](c2ccccc2)C2=NO[C@@H]3CCC[C@H]1[C@H]23"
  GI50: "36 µM (inactive)"
- compound: "COc1ccc(-c2coc3cc(O)cc(O)c3c2=O)cc1"
  GI50: "> 10 µM (inactive)"
